All values here come from the supplement of paper PMC11908140.

B1: library; numbered along this chain (parent)
chain: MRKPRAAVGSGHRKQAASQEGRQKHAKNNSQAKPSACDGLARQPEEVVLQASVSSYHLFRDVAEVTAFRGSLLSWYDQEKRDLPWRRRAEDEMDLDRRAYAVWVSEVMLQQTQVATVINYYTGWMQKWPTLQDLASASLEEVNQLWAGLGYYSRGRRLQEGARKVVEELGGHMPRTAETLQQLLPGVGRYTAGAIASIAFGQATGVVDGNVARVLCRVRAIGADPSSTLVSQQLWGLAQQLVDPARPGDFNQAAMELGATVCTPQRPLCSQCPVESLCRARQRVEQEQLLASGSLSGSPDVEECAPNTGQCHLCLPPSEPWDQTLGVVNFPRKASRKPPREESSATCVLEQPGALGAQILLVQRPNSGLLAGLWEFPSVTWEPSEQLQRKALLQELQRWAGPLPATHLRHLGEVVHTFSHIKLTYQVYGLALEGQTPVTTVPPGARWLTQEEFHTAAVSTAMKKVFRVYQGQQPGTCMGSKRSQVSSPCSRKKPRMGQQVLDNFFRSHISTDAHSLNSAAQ

- Variants of: B1
- measurement-protocol: 8OG:A repair function score (normalized; synonymous = 0, nonsense = -1) (normalized log-likelihood score); higher = more repair activity (WT-like);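 note: cells sorted at 72 h after reporter transfection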
- conditions: with 8OG:A DNA repair reporter (GFP) in HEK-293 MUTYH KO cells
metric-name: 8OG:A repair function score
Please reply with the number alone, leaving off any unit.

Example results:
{"columns": ["mutation-id", "metric-name", "observed-value"],
 "data": [
  ["R340E", "8OG:A repair function score", -0.133],
  ["L370T", "8OG:A repair function score", -0.332],
  ["M496W", "8OG:A repair function score", -0.045]
]}

Check the records and state 8OG:A repair function score for M108F
-0.641

Check the records and state 8OG:A repair function score for L169I
-0.337

Check the records and state 8OG:A repair function score for G222K
-0.495

Check the records and state 8OG:A repair function score for L268T
0.012

Check the records and state 8OG:A repair function score for T179P
-0.236

Check the records and state 8OG:A repair function score for S153Q
-0.127

Check the records and state 8OG:A repair function score for G353N
-0.00787

Check the records and state 8OG:A repair function score for R467E
-0.144
